Item-by-item account of GIP RBA % inhibition at 10 nM
Target: T1, human GIP receptor (human, UniProt P48546 22-466)
T1 construct: whole, on cells; Membrane fractions of HEK-GIPR cells were used; also called HEK-GIPR
T1 sequence (looked up): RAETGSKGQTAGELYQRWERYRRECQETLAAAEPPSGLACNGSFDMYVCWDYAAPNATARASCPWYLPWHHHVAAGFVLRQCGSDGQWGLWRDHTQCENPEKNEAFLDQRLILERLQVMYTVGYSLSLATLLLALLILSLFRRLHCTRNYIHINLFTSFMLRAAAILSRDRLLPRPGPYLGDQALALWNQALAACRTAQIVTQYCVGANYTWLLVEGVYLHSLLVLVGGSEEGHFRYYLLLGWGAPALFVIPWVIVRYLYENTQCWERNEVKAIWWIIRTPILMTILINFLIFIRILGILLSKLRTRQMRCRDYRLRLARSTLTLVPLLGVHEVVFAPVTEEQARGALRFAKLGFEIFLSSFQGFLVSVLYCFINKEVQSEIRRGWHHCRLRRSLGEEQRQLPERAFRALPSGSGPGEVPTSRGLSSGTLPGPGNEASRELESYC
Test: displacement of 30 pM 125I-GIP from HEK-GIPR membranes by 10 nM conjugate, relative to human GIP (100%)
Where no end group is shown, it is not given here. Side-chain parts run from the residue outwards. [ ]: non-standard residue; d: D form. pGlu = O=C1CC[C@@H](C(=O)O)N1; AEEA = NCCOCCOCC(=O)O

Example entries and their recorded answers appear below.
{"BINDER": "YAEGTFISDYSIAMDKIHQQDFVNWLLAQK (C-terminus extended by Ado-Lys-N-ε-(2-(S)-cyano pyrrolidyl)) [GIP(1-30)-Ado-Lys-N-ε-(2-(S)-cyano pyrrolidyl)]", "GIP RBA % inhibition at 10 nM": "99%"}
{"BINDER": "YAEGTFISDYSIALDKIHQQDFVNWLLAQK-{AEEA-Lys‑N‑ε‑(2-(S)-cyano pyrrolidyl)} [[^14Leu] GIP(1-30)-Ado-Lys-N-ε-(2-(S)-cyano pyrrolidyl)]", "GIP RBA % inhibition at 10 nM": "100%"}
{"BINDER": "YAEGTFISDYSIAMDKIHQQDFVNWLLAQK([AEEA-γ‑L‑Glu‑2‑(S)‑cyano pyrrolidyl]) [Lys^30 N-ε-(Ado-(γ-L-Glu-2-(S)-cyano pyrrolidyl)) GIP(1-30)]", "GIP RBA % inhibition at 10 nM": "33%"}
{"BINDER": "YAEGTFISDYSIAMDKIHQQDFVNWLLAQK (C-terminus extended by Ado-Ado-Lys-N-ε-(2-(S)-cyano pyrrolidyl)) [GIP(1-30)-Ado-Ado-Lys-N-ε-(2-(S)-cyano pyrrolidyl)]", "GIP RBA % inhibition at 10 nM": "97%"}
{"BINDER": "YAEGTFISDYSIAMDKIHQQDFVNWLLAQK (not fully specified (N-terminus)) [N-(γ-L-Glu-2-(S)-cyano pyrrolidyl)-Ado-Ado) GIP(1-30)]", "GIP RBA % inhibition at 10 nM": "32%"}

Value of measured GIP RBA % inhibition at 10 nM for the entry [^2D-Ala] GIP(1-30)-Ado-Ado-Aun-βAla-βAla-ε-NH-Lys(α-NH-Pyroglutamoyl)-Trp-Ala-Pro (not fully specified (C-terminus); printed as [^2D-Ala] GIP(1-30)-Ado-Ado-Aun-βAla-βAla-ε-NH-Lys(α-NH-Pyroglutamoyl)-Trp-Ala-Pro; also: linker at chain B 2 to a chain's C-terminus via Ado-Ado-Aun-βAla-βAla) peptide 1: Y[dA]EGTFISDYSIAMDKIHQQDFVNWLLAQK peptide 2: [pGlu]KWAP : 70%

Note to self: GIP RBA % inhibition at 10 nM recorded for [^2D-Ala^14Leu] GIP(1-30)-βAla-βAla-ε-NH-Lys(α-NH-Pyroglutamoyl)-Trp-Ala-Pro (not fully specified (C-terminus); printed as [^2D-Ala^14Leu] GIP(1-30)-βAla-βAla-ε-NH-Lys(α-NH-Pyroglutamoyl)-Trp-Ala-Pro; also: linker at chain B 2 to a chain's C-terminus via βAla-βAla, also called [^2D-Ala,^14Leu]; GIP-(1-30)-β-Ala-β-Ala-Lys(α-NH-Pyroglutamoyl)-Trp-Ala-Pro-COOH) peptide 1: Y[dA]EGTFISDYSIALDKIHQQDFVNWLLAQK peptide 2: [pGlu]KWAP-OH was 66%
